Experiment: In vivo rhesus monkey test, plasma level after topical application
Settings: rhesus monkey, in vivo, topical
Parameter: concentration at 7 h
Please make sure the unit comes right after the number.

(Q) Give its concentration at 7 h value. Item: `COc1ccc2c(c1)c(CC(=O)O)c(C)n2C(=O)c1ccc(Cl)cc1`
(A) 336 ng/mL

* * *

Assay: In vivo rhesus monkey test, plasma level after topical application
Settings: rhesus monkey, plasma, topical; 5 hr; 200 mg in 1 ml of 25% 1-dodecanol and 75% MP, 49 cm^2 upper back, occluded
Parameter: concentration at 5 h (ng/mL)
Numbers only, in ng/mL.

(Q) Give its concentration at 5 h value. Item: CC(C)NCC(O)COc1cccc2ccccc12 (stereo not shown)
(A) 85
